Assay type: in vitro ADME, Mice
Conditions: clearance in microsomes
*1 amine or outer side, *2 acyl side, *3 side chain or, on linkers, in order; H or OH if unused. Where a SMILES comes first, the peptide text is derived from it. [ ]: non-standard residue; d: D form. Trp(1-(1,1-Me2-allyl)) = C=CC(C)(C)n1cc(C[C@H](N)C(=O)O)c2ccccc21; Ala(3R-Me,3-isobutenyl) = CC(C)=C[C@@H](C)[C@H](N)C(=O)O; X3 = C#CCOc1ccc([C@@H](OC)[C@H](N[*:1])C(=O)[*:2])cc1; NMeLeu(5-OH,4R) = CN[C@@H](C[C@@H](C)CO)C(=O)O; Phe(βR-OMe) = CO[C@H](c1ccccc1)[C@H](N)C(=O)O; Trp(1-Me) = Cn1cc(C[C@H](N)C(=O)O)c2ccccc21; NMeL = CN[C@@H](CC(C)C)C(=O)O
Parameter Microsomal Stability Mice: see the listing below.
observation.type: Microsomal Stability Mice (%Qh)

1. C=CC(C)(C)n1cc(C[C@@H]2NC(=O)[C@H]([C@H](C)C=C(C)C)NC(=O)[C@H](CC(C)C)N(C)C(=O)[C@H](C(C)C)NC(=O)[C@H]([C@H](OC)c3ccccc3)NC(=O)[C@H](C)NC(=O)[C@H](C[C@@H](C)CO)N(C)C2=O)c2ccccc21 [dCymC] (cyclo([Trp(1-(1,1-Me2-allyl))][NMeLeu(5-OH,4R)]A[Phe(βR-OMe)]V[NMeL][Ala(3R-Me,3-isobutenyl)])) :: 56
2. C#CCOc1ccc([C@@H](OC)[C@@H]2NC(=O)[C@H](C)NC(=O)[C@H](C[C@@H](C)CO)N(C)C(=O)[C@H](Cc3cn(C)c4ccccc34)NC(=O)[C@H](C(C)C)NC(=O)[C@H](CC(C)C)N(C)C(=O)[C@H](C(C)C)NC2=O)cc1 [SI-38] (cyclo(A[X3]V[NMeL]V[Trp(1-Me)][NMeLeu(5-OH,4R)])) :: 73
3. COC(c1ccccc1)C1NC(=O)C(C)NC(=O)C(CC(C)CO)N(C)C(=O)C(Cc2cn(Cc3cn(CCOCCOCCOCCOCCn4cc(Cn5cc(CC6NC(=O)C(C(C)C)NC(=O)C(CC(C)C)N(C)C(=O)C(C(C)C)NC(=O)C(C(OC)c7ccccc7)NC(=O)C(C)NC(=O)C(CC(C)CO)N(C)C6=O)c6ccccc65)nn4)nn3)c3ccccc23)NC(=O)C(C(C)C)NC(=O)C(CC(C)C)N(C)C(=O)C(C(C)C)NC1=O (stereo not drawn) :: 72

----------
Test system: Salmonella typhimurium
Assay: MIC ESKAPES panel, Salmonella typhimurium
Type: cell-based
Conditions: Salmonella enterica, TYPHIMURIUM; Gram-Negative Bacteria; replicates 1-3
*1 amine or outer side, *2 acyl side, *3 side chain or, on linkers, in order; H or OH if unused. Where a SMILES comes first, the peptide text is derived from it. [ ]: non-standard residue; d: D form. X1 = C#CCn1cc(C[C@H](N[*:1])C(=O)[*:2])c2ccccc21; NMeLeu(5-OH,4R) = CN[C@@H](C[C@@H](C)CO)C(=O)O; Phe(βR-OMe) = CO[C@H](c1ccccc1)[C@H](N)C(=O)O; Trp(1-Me) = Cn1cc(C[C@H](N)C(=O)O)c2ccccc21; NMeL = CN[C@@H](CC(C)C)C(=O)O; Pra = C#CC[C@H](N)C(=O)O
observation.type: MIC

1) COC(c1ccccc1)C1NC(=O)C(C)NC(=O)C(CC(C)CO)N(C)C(=O)C(Cc2cn(C)c3ccccc23)NC(=O)C(Cc2cn(CCCCCn3cc(CC4NC(=O)C(CC(C)C)N(C)C(=O)C(C(C)C)NC(=O)C(C(OC)c5ccccc5)NC(=O)C(C)NC(=O)C(CC(C)CO)N(C)C(=O)C(Cc5cn(C)c6ccccc56)NC4=O)nn3)nn2)NC(=O)C(CC(C)C)N(C)C(=O)C(C(C)C)NC1=O (stereo not shown) :: > 99 µg/mL
2) COC(c1ccccc1)C1NC(=O)C(C)NC(=O)C(CC(C)CO)N(C)C(=O)C(Cc2cn(Cc3cn(CCOCCOCCOCCOCCn4cc(Cn5cc(CC6NC(=O)C(C(C)C)NC(=O)C(CC(C)C)N(C)C(=O)C(C(C)C)NC(=O)C(C(OC)c7ccccc7)NC(=O)C(C)NC(=O)C(CC(C)CO)N(C)C6=O)c6ccccc65)nn4)nn3)c3ccccc23)NC(=O)C(C(C)C)NC(=O)C(CC(C)C)N(C)C(=O)C(C(C)C)NC1=O (stereo not shown) :: > 109 µg/mL
3) C#CC[C@@H]1NC(=O)[C@H](CC(C)C)N(C)C(=O)[C@H](C(C)C)NC(=O)[C@H]([C@H](OC)c2ccccc2)NC(=O)[C@H](C)NC(=O)[C@H](C[C@@H](C)CO)N(C)C(=O)[C@H](Cc2cn(C)c3ccccc23)NC1=O [Compound 10] (cyclo(A[Phe(βR-OMe)]V[NMeL][Pra][Trp(1-Me)][NMeLeu(5-OH,4R)])) :: > 45.6 µg/mL
4) C#CCn1cc(C[C@@H]2NC(=O)[C@H](C(C)C)NC(=O)[C@H](CC(C)C)N(C)C(=O)[C@H](C(C)C)NC(=O)[C@H]([C@H](OC)c3ccccc3)NC(=O)[C@H](C)NC(=O)[C@H](C[C@@H](C)CO)N(C)C2=O)c2ccccc21 [Compound 5] (cyclo(A[Phe(βR-OMe)]V[NMeL]V[X1][NMeLeu(5-OH,4R)])) :: > 47 µg/mL

This collection of values is drawn from paper PMC10914731.
